Item-by-item account of [14C]glucose bound GBP2
# Tested on: GBP2
# testName: Effect of unlabelled glucose analogues on binding of [14C]glucose to GBP2, equilibrium dialysis
# Set-up: species or system Agrobacterium radiobacter
# assayContext: 0.5 nmol pure protein, 3 nmol [14C]glucose plus 120 nmol unlabelled analogue, 30 h, 4° C.
outcomeMeasure: [14C]glucose bound GBP2 (% control value)

1) O=C[C@H](O)[C@@H](O)[C@H](O)[C@H](O)CO :: 4
2) O=C[C@H](O)[C@@H](O)[C@@H](O)[C@H](O)CO :: 99
3) OC1O[C@H](CCl)[C@@H](O)[C@H](O)[C@H]1O (stereo partly drawn) :: 60
4) CO[C@H]1[C@H](O)[C@@H](CO)OC(O)[C@@H]1O (stereo partly drawn) :: 103
5) O=CC[C@@H](O)[C@H](O)[C@H](O)CO :: 98
6) C[C@@H](O)[C@H](O)[C@H](O)[C@@H](O)C=O :: 99
7) CO[C@H]1O[C@H](CO)[C@@H](O)[C@H](O)[C@H]1O :: 104
8) O=C[C@H](O)[C@@H](O)[C@H](O)CO :: 2
9) C[C@@H](O)[C@@H](O)[C@H](O)[C@@H](O)C=O :: 0

====

# Tested on: A. radiobacter strain AR18
# testName: Effect of glucose analogues on [14C]glucose uptake by strain AR18 grown under glucose limitation
# Type: cell-based, Agrobacterium radiobacter
# assayContext: Agrobacterium radiobacter, AR18, pH 7; unlabelled sugars 10 mM, [14C]glucose 250M, glucose-limited culture D = 0.045 h^-1, control rate 72 nmol min^-1 (mg dry wt)^-1
# Method: Measurement of glucose uptake. […] Assays were carried out in an open-topped Rank oxygen electrode vessel containing 1 ml 20 mM HEPES/KOH buffer, pH 7.0, and 1 mg dry wt cells. The contents of the vessel were maintained at 30° C. and mixed continuously using a magnetic stirrer. […]
Listed below: activity at 10000 µM values for each entry.
outcomeMeasure: activity at 10000 µM (%)

1) O=C[C@H](O)[C@@H](O)[C@H](O)CO [D-xylose] :: 64
2) CO[C@H]1O[C@H](CO)[C@@H](O)[C@H](O)[C@H]1O [alpha-1-O-methyl-D-glucose] :: 111
3) CO[C@H]1[C@H](O)[C@@H](CO)OC(O)[C@@H]1O (stereo partly drawn) [3-O-methyl-D-glucose] :: 111
4) O=C[C@H](O)[C@@H](O)[C@@H](O)[C@H](O)CO [D-galactose] :: 8
5) O=CC[C@@H](O)[C@H](O)[C@H](O)CO [2-deoxy-D-glucose] :: 93
6) C[C@@H](O)[C@H](O)[C@H](O)[C@@H](O)C=O [D-fucose] :: 18
7) O=C[C@H](O)[C@@H](O)[C@H](O)[C@H](O)CO [D-glucose] :: 4
8) OC1O[C@H](CCl)[C@@H](O)[C@H](O)[C@H]1O (stereo partly drawn) [6-chloro-6-deoxy-D-glucose] :: 8
9) C[C@@H](O)[C@@H](O)[C@H](O)[C@@H](O)C=O [6-deoxy-D-glucose] :: 27

====

# Test system: GBP1
# testName: Effect of unlabelled glucose analogues on binding of [14C]glucose to GBP1, equilibrium dialysis
# Set-up: species or system Agrobacterium radiobacter
# assayContext: competition with [14C]glucose in vitro
outcomeMeasure: Effect on binding of glucose to GBP1 (in words)

1. CO[C@H]1[C@H](O)[C@@H](CO)OC(O)[C@@H]1O (stereo partly drawn) [3-O-methyl-D-glucose] :: did not affect
2. CO[C@H]1O[C@H](CO)[C@@H](O)[C@H](O)[C@H]1O [alpha-1-O-methyl-D-glucose] :: did not affect
3. O=CC[C@@H](O)[C@H](O)[C@H](O)CO [2-deoxy-D-glucose] :: did not affect

====

# System: GBP2
# testName: Effect of unlabelled glucose analogues on binding of [14C]glucose to GBP2, equilibrium dialysis
# Set-up: species or system Agrobacterium radiobacter
# assayContext: competition with [14C]glucose in vitro
outcomeMeasure: Effect on binding of glucose to GBP2 (in words)

1. CO[C@H]1O[C@H](CO)[C@@H](O)[C@H](O)[C@H]1O :: did not affect
2. CO[C@H]1[C@H](O)[C@@H](CO)OC(O)[C@@H]1O (some centres unmarked) :: did not affect
3. O=CC[C@@H](O)[C@H](O)[C@H](O)CO :: did not affect

====

# assayTarget: GBP1
# testName: Binding of [14C]glucose to pure GBP1, equilibrium dialysis, Scatchard analysis
# Set-up: species or system Agrobacterium radiobacter
# assayContext: as printed in the summary; read-out: KD of D-glucose for GBP1 (summary)
outcomeMeasure: Kd (nM)

1. O=C[C@H](O)[C@@H](O)[C@H](O)[C@H](O)CO :: 230

====

Form field: [14C]glucose bound GBP1 (one value per entry).
# Test system: GBP1
# testName: Effect of unlabelled glucose analogues on binding of [14C]glucose to GBP1, equilibrium dialysis
# Design: species or system Agrobacterium radiobacter
# assayContext: 0.5 nmol pure protein, 3 nmol [14C]glucose plus 120 nmol unlabelled analogue, 30 h, 4° C.
outcomeMeasure: [14C]glucose bound GBP1 (% control value)

1) O=C[C@H](O)[C@@H](O)[C@H](O)[C@H](O)CO :: 4
2) OC1O[C@H](CCl)[C@@H](O)[C@H](O)[C@H]1O (stereo partly drawn) :: 0
3) C[C@@H](O)[C@@H](O)[C@H](O)[C@@H](O)C=O :: 51
4) C[C@@H](O)[C@H](O)[C@H](O)[C@@H](O)C=O :: 31
5) O=C[C@H](O)[C@@H](O)[C@@H](O)[C@H](O)CO :: 2
6) CO[C@H]1[C@H](O)[C@@H](CO)OC(O)[C@@H]1O (stereo partly drawn) :: 100
7) O=C[C@H](O)[C@@H](O)[C@H](O)CO :: 72
8) CO[C@H]1O[C@H](CO)[C@@H](O)[C@H](O)[C@H]1O :: 99
9) O=CC[C@@H](O)[C@H](O)[C@H](O)CO :: 96

====

# assayTarget: GBP2
# testName: Binding of [14C]glucose to pure GBP2, equilibrium dialysis, Scatchard analysis
# Design: species or system Agrobacterium radiobacter
# assayContext: equilibrium dialysis, 4° C., pH 6.8; read-out: KD of glucose for GBP2
pKd: −log10 of the molar value.
outcomeMeasure: pKd

1) O=C[C@H](O)[C@@H](O)[C@H](O)[C@H](O)CO [D-glucose] :: 7.15

====

# assayTarget: GBP1
# testName: Binding of [14C]glucose to pure GBP1, equilibrium dialysis, Scatchard analysis
# Parameters: species or system Agrobacterium radiobacter
# assayContext: equilibrium dialysis, 4° C., pH 6.8; read-out: KD of glucose for GBP1
# Description: Determination of binding constants using equilibrium dialysis. This was carried out at 4° C. using an eight-cell rotating module (Hoefer Scientific Instruments, San Fransisco, Calif., U.S.A.). […] The module was rotated at 10 rev min^-1 for 30 h (by which time equilibrium had been attained) and samples (50 ul) were taken in triplicate from each chamber and counted in 3 ml Fisofluor 2 (Fisons Ltd.). The data were analyzed according to the method of Scatchard (1949).
outcomeMeasure: Kd (nM)

1. O=C[C@H](O)[C@@H](O)[C@H](O)[C@H](O)CO :: 230

====

# assayTarget: GBP2
# testName: Binding of [14C]glucose to pure GBP2, equilibrium dialysis, Scatchard analysis
# Parameters: species or system Agrobacterium radiobacter
# assayContext: as printed in the summary; read-out: KD of D-glucose for GBP2 (summary)
# Procedure: Determination of binding constants using equilibrium dialysis. This was carried out at 4° C. using an eight-cell rotating module (Hoefer Scientific Instruments, San Fransisco, Calif., U.S.A.). […] The module was rotated at 10 rev min^-1 for 30 h (by which time equilibrium had been attained) and samples (50 ul) were taken in triplicate from each chamber and counted in 3 ml Fisofluor 2 (Fisons Ltd.). The data were analyzed according to the method of Scatchard (1949).
pKd: −log10 of the molar value.
outcomeMeasure: pKd

1. O=C[C@H](O)[C@@H](O)[C@H](O)[C@H](O)CO [D-glucose] :: 7.15
